Origin of measurements: patent US20150252048A1

target: Cytochrome P450 3A4 (Homo sapiens, UniProt P08684); construct: purchased Invitrogen; experiment: Cytochrome P450 inhibition (P450 BACULOSOMES, Vivid substrates); type: in vitro ADME; conditions: DBOMF substrate; read-out: CYP Activity 3A4/DBOMF IC50
Sequence (P08684 whole entry): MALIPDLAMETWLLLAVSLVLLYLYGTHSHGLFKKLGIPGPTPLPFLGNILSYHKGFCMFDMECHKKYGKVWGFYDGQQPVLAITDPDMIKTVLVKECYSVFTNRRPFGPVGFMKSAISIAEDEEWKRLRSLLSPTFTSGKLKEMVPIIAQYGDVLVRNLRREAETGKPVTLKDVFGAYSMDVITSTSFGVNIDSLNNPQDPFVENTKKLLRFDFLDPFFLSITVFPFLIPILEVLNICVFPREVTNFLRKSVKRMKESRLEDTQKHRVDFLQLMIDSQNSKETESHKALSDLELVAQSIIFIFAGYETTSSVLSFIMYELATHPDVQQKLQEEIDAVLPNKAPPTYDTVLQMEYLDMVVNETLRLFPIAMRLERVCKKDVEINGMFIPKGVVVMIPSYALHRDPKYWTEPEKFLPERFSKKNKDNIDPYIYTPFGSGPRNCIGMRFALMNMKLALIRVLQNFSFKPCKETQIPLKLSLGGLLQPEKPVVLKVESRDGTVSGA
assayMetric: pIC50
The value called pIC50 is obtained by taking minus log10 of the concentration in mol/L.

Give its pIC50 value. Item: "C=CC(=O)Nc1cccc(-c2nc(Nc3cccc(N4CCOCC4)c3)nc3[nH]ncc23)c1" 5.69

---

molecular target: Cytochrome P450 2D6 (Homo sapiens)
Sequence (P10635 whole entry): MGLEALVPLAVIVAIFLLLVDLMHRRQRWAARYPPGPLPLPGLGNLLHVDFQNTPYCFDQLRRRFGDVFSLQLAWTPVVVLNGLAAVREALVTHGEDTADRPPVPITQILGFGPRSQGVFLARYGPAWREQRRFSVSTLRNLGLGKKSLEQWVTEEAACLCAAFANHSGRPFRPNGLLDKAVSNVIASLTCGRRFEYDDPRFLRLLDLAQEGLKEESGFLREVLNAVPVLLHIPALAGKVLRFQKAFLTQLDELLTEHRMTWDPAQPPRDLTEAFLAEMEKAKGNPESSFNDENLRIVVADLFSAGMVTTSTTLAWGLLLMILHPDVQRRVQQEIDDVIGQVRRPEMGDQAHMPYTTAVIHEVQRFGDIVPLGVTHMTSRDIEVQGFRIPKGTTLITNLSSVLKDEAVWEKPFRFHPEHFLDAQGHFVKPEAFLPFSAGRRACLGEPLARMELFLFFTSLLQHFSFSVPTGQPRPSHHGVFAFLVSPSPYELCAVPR
pIC50: −log10 of the molar value.
assayMetric: pIC50

Give its pIC50 value. Item: "C=CC(=O)Nc1cccc(-c2nc(Nc3cccc(N4CCOCC4)c3)nc3[nH]ncc23)c1" ≤ 5.00

---

Assay: Pharmacokinetics in rat
Assay type: in vivo, male Sprague Dawley rats
Conditions: male, Sprague Dawley, plasma, IV 5 mg/kg, solution, read-out: Vss
Description: The pharmacokinetic behavior of a representative disclosed compound, compound 3 (N-(3-(6-((3-morpholinophenyl)amino)-1H-pyrazolo[3,4-d]pyrimidin-4-yl)phenyl)acrylamide), which corresponds to compound 3 in Table I, was also evaluated in rat. A study was conducted using three male Sprague Dawley rats in each group as shown below: The solution formulations were prepared as follows: (A) intravenous route (“i.v.”): a weighed quantity of 3 (10.45 mg) was transferred into a 10 mL clean glass vial. […]
assayMetric: Vd (L/kg)
Respond numerically; units are L/kg and should not be typed.

Give its Vd value. Item: C=CC(=O)Nc1cccc(-c2nc(Nc3cccc(N4CCOCC4)c3)nc3[nH]ncc23)c1 [SC-1344] 7.91

---

target: ERBB4/HER4 (Homo sapiens, UniProt Q15303); assay: Specific kinase IC50 assay; conditions: 1 μM ATP, 10-dose, duplicate
Sequence (Q15303 26-1308): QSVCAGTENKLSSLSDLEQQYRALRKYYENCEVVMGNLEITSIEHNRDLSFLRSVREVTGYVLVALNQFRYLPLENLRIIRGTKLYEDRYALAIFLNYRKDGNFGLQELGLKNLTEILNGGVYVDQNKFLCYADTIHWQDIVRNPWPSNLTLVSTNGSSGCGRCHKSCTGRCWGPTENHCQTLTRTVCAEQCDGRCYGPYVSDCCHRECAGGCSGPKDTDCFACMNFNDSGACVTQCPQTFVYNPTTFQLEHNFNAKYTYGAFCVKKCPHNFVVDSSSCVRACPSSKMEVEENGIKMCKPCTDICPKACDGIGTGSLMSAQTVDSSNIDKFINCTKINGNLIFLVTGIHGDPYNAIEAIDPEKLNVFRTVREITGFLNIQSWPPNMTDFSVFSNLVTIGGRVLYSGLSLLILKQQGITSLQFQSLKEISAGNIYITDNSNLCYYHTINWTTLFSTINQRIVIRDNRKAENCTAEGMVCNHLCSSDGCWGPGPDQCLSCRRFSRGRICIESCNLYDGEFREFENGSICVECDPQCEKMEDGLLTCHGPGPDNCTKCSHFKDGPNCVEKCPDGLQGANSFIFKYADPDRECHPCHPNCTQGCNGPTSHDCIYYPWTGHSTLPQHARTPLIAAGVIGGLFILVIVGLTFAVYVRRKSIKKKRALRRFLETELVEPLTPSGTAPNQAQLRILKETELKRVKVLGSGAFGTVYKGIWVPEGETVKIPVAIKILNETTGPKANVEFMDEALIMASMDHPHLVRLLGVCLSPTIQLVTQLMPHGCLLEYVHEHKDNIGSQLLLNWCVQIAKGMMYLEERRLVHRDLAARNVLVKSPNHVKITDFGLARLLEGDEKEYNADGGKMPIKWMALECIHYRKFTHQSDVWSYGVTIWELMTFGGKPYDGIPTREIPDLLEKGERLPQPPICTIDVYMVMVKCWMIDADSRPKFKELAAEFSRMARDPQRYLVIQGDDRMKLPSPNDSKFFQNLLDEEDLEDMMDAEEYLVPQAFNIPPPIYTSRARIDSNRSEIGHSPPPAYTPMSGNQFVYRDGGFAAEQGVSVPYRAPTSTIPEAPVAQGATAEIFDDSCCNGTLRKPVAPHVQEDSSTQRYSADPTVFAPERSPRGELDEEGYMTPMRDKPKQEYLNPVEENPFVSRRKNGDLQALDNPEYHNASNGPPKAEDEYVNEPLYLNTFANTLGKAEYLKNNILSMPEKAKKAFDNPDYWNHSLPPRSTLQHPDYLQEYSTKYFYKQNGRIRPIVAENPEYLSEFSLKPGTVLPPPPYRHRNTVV
assayMetric: pIC50
The value called pIC50 is obtained by taking minus log10 of the concentration in mol/L.

Request: pIC50, test system ERBB4/HER4 (Homo sapiens, UniProt Q15303), entry C=CC(=O)Nc1cccc(-c2nc(Nc3cccc(N4CCOCC4)c3)nc3[nH]ncc23)c1 [Compound 3] 7.76

---

assay: Microsomal stability; type: in vitro ADME, rat; details: rat microsomes; read-out: CLinit (intrinsic clearance)
assayMetric: microsomal CLint at 1 μM (µL/min/mg)
Respond numerically; units are µL/min/mg and should not be typed.

Give its microsomal CLint at 1 μM value. Item: C=CC(=O)Nc1cccc(-c2nc(Nc3cccc(N4CCOCC4)c3)nc3[nH]ncc23)c1 [Compound 3] 100

---

assay: Pharmacokinetics in mice; format: in vivo; conditions: mouse, plasma, po, 10 mg/kg, p.o. (HCl salt), 10 mg/kg oral gavage
assayMetric: bioavailability (%)
Respond numerically; units are % and should not be typed.

Give its bioavailability value. Item: C=CC(=O)Nc1cccc(-c2nc(Nc3cccc(N4CCOCC4)c3)nc3[nH]ncc23)c1 [Compound 3] 3

---

experiment: Pharmacokinetics in rat; format: in vivo, male Sprague Dawley rats; conditions: male, Sprague Dawley, plasma, IV 5 mg/kg, solution, read-out: Cmax (back-extrapolated concentration)
assayMetric: Cmax (ng/mL)
Respond numerically; units are ng/mL and should not be typed.

Give its Cmax value. Item: C=CC(=O)Nc1cccc(-c2nc(Nc3cccc(N4CCOCC4)c3)nc3[nH]ncc23)c1 [Compound 3] 1840
